Target: CCK-B receptors (CHO-CCK) (Homo sapiens)
Construct: expressed in transfected cells; host or cells: CHO (CHO-CCK model cells)
Sequence (P32239 whole entry): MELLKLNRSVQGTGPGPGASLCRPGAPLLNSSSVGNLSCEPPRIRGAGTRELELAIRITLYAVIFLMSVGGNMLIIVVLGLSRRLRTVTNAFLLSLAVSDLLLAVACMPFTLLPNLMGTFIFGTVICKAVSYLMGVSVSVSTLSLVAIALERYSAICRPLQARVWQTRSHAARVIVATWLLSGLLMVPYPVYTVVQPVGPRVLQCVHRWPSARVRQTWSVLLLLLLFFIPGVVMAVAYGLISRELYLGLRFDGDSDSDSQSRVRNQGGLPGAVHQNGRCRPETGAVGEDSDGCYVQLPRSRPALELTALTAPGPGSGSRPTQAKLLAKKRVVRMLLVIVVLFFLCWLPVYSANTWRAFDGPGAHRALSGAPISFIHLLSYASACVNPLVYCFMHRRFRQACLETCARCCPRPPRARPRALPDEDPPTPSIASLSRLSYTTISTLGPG
Assay: Calcium flux (Fluo-8) agonist test on CHO-CCK model cells
Assay type: cell-based
Conditions: compound at 50 nM, CHO-CCK cells
Protocol: • To detect changes in intracellular calcium ion concentration after the compound acts on model cells containing CCK-B receptors (CHO-CCK). • 1. The compound was formulated to a 10 mM mother liquor with DMSO, and then diluted into a series of 9 concentrations with a 3-fold gradient to form a 1000× stock solution. […] • 1. […] In the process of incubating cells, the compounds to be detected were prepared with HHBS. • 5. […]
*1 amine or outer side, *2 acyl side, *3 side chain or, on linkers, in order; H or OH if unused. Where a SMILES comes first, the peptide text is derived from it. [ ]: non-standard residue; d: D form. X1 = O=C([C@@]1(O)C[C@@H](O)[C@H](N[*:1])C([C@@H](O)[C@@H](O)CO)O1)[*:2]; NMeW = CN[C@@H](Cc1c[nH]c2ccccc12)C(=O)O; Phe(3-Br) = N[C@@H](Cc1cccc(Br)c1)C(=O)O; Nle = CCCC[C@H](N)C(=O)O
MEASURED METRIC: % Act-Ave @ 50 nM (%)

INSERT INTO results (molecule, meas_value) VALUES
  ('CSCC[C@H](NC(C)=O)C(=O)N[C@@H](CC(=O)O)C(=O)N[C@@H](Cc1ccccc1)C(N)=O [HT-280, Ac-Met-Asp-Phe-NH2] (Ac-Met-Asp-Phe-NH2)', '−0.16'),
  ('CCCC[C@H](NC(=O)[C@H](Cc1c[nH]c2ccccc12)N(C)C(=O)[C@@]1(O)C[C@@H](O)[C@H](NC(C)=O)C([C@@H](O)[C@@H](O)CO)O1)C(=O)N[C@@H](CC(=O)O)C(=O)N[C@@H](Cc1cccc(Br)c1)C(N)=O (stereo partly shown) [HT-274, Sia-(N-Me-Trp)-Nle Asp-Phe(3-Br)-NH2] (Ac-[X1][NMeW][Nle]D[Phe(3-Br)]-NH2)', 72.88),
  ('CC(=O)N[C@@H](CC(=O)O)C(=O)N[C@@H](Cc1ccccc1)C(N)=O [HT-284, Ac-Asp-Phe-NH2] (Ac-Asp-Phe-NH2)', 0.09),
  ('CCCC[C@H](NC(=O)[C@H](Cc1c[nH]c2ccccc12)N(C)C(=O)[C@@]1(O)C[C@@H](O)[C@H](NC(C)=O)C([C@@H](O)[C@@H](O)CO)O1)C(=O)N[C@@H](CC(=O)O)C(=O)N[C@@H](Cc1cccc(Br)c1)C(N)=O (stereo partly drawn) [HT-278, Sia-(N-Me-Trp)-Nle-Asp-Phe(3-Br)-NH2] (Ac-[X1][NMeW][Nle]D[Phe(3-Br)]-NH2)', 93.12);

---

molecular target: CCK-B receptors (CHO-CCK) (Homo sapiens); construct: expressed in transfected cells; host or cells: CHO (CHO-CCK model cells); assay: Calcium flux (Fluo-8) agonist test on CHO-CCK model cells; format: cell-based; details: CHO-CCK cells, compound alone; 100% = 20 nM CCK8
Where a SMILES comes first, the peptide text is derived from it. [ ]: non-standard residue; d: D form. Phe(3-Br) = N[C@@H](Cc1cccc(Br)c1)C(=O)O; Nle = CCCC[C@H](N)C(=O)O
Classification by EC50 follows these ranges: LOW = under 0.2 µM, MEDIUM = from 0.2 µM up to 9 µM, HIGH = 9 µM and over

INSERT INTO assay_data (compound, study_target, class_assignment) VALUES
  ('CSCC[C@H](NC(=O)[C@H](N)Cc1c[nH]c2ccccc12)C(=O)N[C@@H](CC(=O)O)C(=O)N[C@@H](Cc1cc(Cl)cc(Cl)c1)C(N)=O [HT-38, D-Trp-Met-Asp-Phe(3,5-DiCl)-NH2]', 'CCK-B receptors (CHO-CCK) (Homo sapiens)', 'LOW'),
  ('CS(=O)(=O)CC[C@H](NC(=O)[C@H](N)Cc1c[nH]c2ccccc12)C(=O)N[C@@H](CC(=O)O)C(=O)N[C@@H](Cc1cc(F)c(F)c(F)c1)C(N)=O [HT-74, D-Trp-Met(O2)-Asp-Phe(3,4,5-TriF)-NH2]', 'CCK-B receptors (CHO-CCK) (Homo sapiens)', 'HIGH'),
  ('CSCC[C@H](NC(=O)[C@@H](Cc1c[nH]c2ccccc12)NC(C)=O)C(=O)N[C@@H](CCCCN)C(=O)N[C@@H](Cc1cccc(Br)c1)C(N)=O [HT-188, Ac-D-Trp-Met-Lys-Phe(3-Br)-NH2] (Ac-[dW]MK[Phe(3-Br)]-NH2)', 'CCK-B receptors (CHO-CCK) (Homo sapiens)', 'MEDIUM'),
  ('CCCC[C@H](NC(=O)[C@H](Cc1c[nH]c2ccccc12)NC(C)=O)C(=O)N[C@@H](CC(=O)O)C(=O)N[C@@H](Cc1cccc(Br)c1)C(N)=O [HT-177, Ac-Trp-Nle-Asp-Phe(3-Br)-NH2] (Ac-W[Nle]D[Phe(3-Br)]-NH2)', 'CCK-B receptors (CHO-CCK) (Homo sapiens)', 'LOW'),
  ('CS(=O)(=O)CC[C@H](NC(=O)[C@H](N)Cc1c[nH]c2ccccc12)C(=O)N[C@@H](CC(=O)O)C(=O)N[C@@H](Cc1cc(F)cc(F)c1)C(N)=O [HT-73, D-Trp-Met(O2)-Asp-Phe(3,5-DIF)-NH2]', 'CCK-B receptors (CHO-CCK) (Homo sapiens)', 'HIGH'),
  ('CSCC[C@H](NC(=O)[C@H](N)Cc1c[nH]c2ccccc12)C(=O)N[C@@H](CC(=O)O)C(=O)N[C@@H](Cc1ccc([N+](=O)[O-])cc1)C(N)=O [HT-33, D-Trp-Met-Asp-Phe(4-NO2)-NH2]', 'CCK-B receptors (CHO-CCK) (Homo sapiens)', 'MEDIUM'),
  ('CSCC[C@H](NC(=O)[C@H](N)Cc1c[nH]c2ccccc12)C(=O)N[C@@H](CC(=O)O)C(=O)N[C@@H](Cc1ccc(Br)cc1)C(N)=O [HT-34, D-Trp-Met-Asp-Phe(4-Br)-NH2]', 'CCK-B receptors (CHO-CCK) (Homo sapiens)', 'MEDIUM'),
  ('CSCC[C@H](NC(=O)[C@@H](Cc1c[nH]c2ccccc12)NC(C)=O)C(=O)N[C@@H](CCC(=O)O)C(=O)N[C@@H](Cc1cccc(Br)c1)C(N)=O [HT-186, Ac-D-Trp-Met-Glu-Phe(3-Br)-NH2] (Ac-[dW]ME[Phe(3-Br)]-NH2)', 'CCK-B receptors (CHO-CCK) (Homo sapiens)', 'MEDIUM');
